Assay System: MBP-TbtD
Assay Comment: fluorescence polarisation
Quantity Name: IC50 (nM)

Binder	IC50 [nM]
MDLNDLPMDAFELADSGVAVESLTAGHGMTEVGASCNCFCYICCSCSSA [TbtA V(−25)A]	2250
MDLNDLPMDVFELADSGAAVESLTAGHGMTEVGASCNCFCYICCSCSSA [TbtA V(−17)A]	690
MDANDLPMDVFELADSGVAVESLTAGHGMTEVGASCNCFCYICCSCSSA [TbtA L(−32)A]	1710

1: MDLNDLPMDVFELADAGVAVESLTAGHGMTEVGASCNCFCYICCSCSSA [TbtA S(−19)A]
2: MDLNDLPMDVFELADSGVAVESLTAGHGMTEVGASCNCFCYICCSCSSA [TbtA wild-type]
Exam item: For this pair, 1 and 2 , which shows a numerically higher IC50? Bench note: the answer is the label of the chosen record.
Marked response: 1
(1: 910 nM, 2: 610 nM)
